STUDY_SYSTEM: hEAAT2 mutant R478A (Homo sapiens, UniProt P43004, R478A)
Construct: Strep Tag II (N); superfolder GFP (sfGFP) (N)
Sequence (P43004 whole entry R478A): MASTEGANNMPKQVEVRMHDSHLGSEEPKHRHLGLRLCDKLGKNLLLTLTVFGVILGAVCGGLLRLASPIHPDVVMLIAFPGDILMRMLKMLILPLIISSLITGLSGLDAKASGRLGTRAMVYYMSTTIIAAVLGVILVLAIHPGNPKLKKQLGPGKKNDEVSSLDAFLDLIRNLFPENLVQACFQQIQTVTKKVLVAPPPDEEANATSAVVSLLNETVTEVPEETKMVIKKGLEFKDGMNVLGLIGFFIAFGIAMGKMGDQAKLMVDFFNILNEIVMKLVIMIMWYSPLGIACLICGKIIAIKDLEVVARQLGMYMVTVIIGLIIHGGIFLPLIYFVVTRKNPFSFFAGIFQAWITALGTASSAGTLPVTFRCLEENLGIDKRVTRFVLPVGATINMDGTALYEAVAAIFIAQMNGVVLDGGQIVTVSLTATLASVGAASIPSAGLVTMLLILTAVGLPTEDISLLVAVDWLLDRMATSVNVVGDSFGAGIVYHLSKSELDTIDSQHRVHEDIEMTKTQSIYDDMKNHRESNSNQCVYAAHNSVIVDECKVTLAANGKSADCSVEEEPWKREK
ASSAY_COMMENT: whole-cell patch-clamp, hEAAT2 mutant R478A in HEK293T cells
CONDITION_INFO: R478A mutant, 0 mV; read-out: apparent Ki
pKi: −log10 of the molar value.
METRIC: pKi

- MOLECULE: "NC(CC(=O)Nc1ccc(Oc2cc(F)c(F)cc2Br)cc1)C(=O)O (stereo not shown)"
  OBS_VALUE: 5.77
